Tested on: U2OS
Assay: Multiplex assay against U2OS
Format: toxicity, cell-based
Details: human, 24 h, 1 µM, compound concentration 1 uM, replicate 2
# if measured Total Cell Count < 100: t  # else: f

Look over these answered cases.
- compound: "Cl.Oc1ccc2c3c1O[C@H]1c4[nH]c5c(c4C[C@@]4(O)[C@@H](C2)N(CC2CC2)CC[C@]314)C[C@@]1(O)[C@H]2Cc3ccc(O)c4c3[C@@]1(CCN2CC1CC1)[C@H]5O4"
  label: "t"
- compound: "Cc1ccc2nc(NCCN)c3ncc(C)n3c2c1.O=C(O)C(F)(F)F.O=C(O)C(F)(F)F"
  label: "f"
- compound: "CN1C2CCC1CC(OC(c1ccc(F)cc1)c1ccc(F)cc1)C2.Cl (stereo not drawn)"
  label: "t"
- compound: "C=CCn1c(=O)c2cnc(Nc3ccc(N4CCN(C)CC4)cc3)nc2n1-c1cccc(C(C)(C)O)n1 [ADAVOSERTIB]"
  label: "f"
- compound: "CCc1cccc(CC)c1NC(=O)c1nn(C)c2c1CCc1cnc(Nc3ccc(N4CCN(C)CC4)cc3OC)nc1-2"
  label: "t"

Problem: For the compound CCOC(=O)c1c(C)[nH]c2ccc3c(c12)CN1CCc2cc(OC)ccc2C1O3 (stereo not drawn) , is Total Cell Count under 100? t

Problem: For the compound COC(=N)c1nc2ccc3ncnc(Nc4ccc(OC)cc4F)c3c2s1 , is Total Cell Count under 100? f

Problem: For the compound NC(=O)c1cccc(-c2cc(Nc3ccc(OC(F)(F)F)cc3)ncn2)c1 , is Total Cell Count under 100? f

meta.source: ChEMBL document CHEMBL4689842
